# testTarget: DLG1_1, Q12959
# runDescription: holdup assay
# Parameters: key: below the threshold = too weak to quantify, mostly under pKd 3.1 to 4
# conditionLabel: plain residues with an end cap or a label only (N-terminal biotin on a linker: ado-ado)
readoutName: pKd

Some solved cases for reference:
binder="QSLNRMEYIV [JAG1, P78504]" readoutname=pKd obsvalue="below the threshold"
binder="RRLPGKETMA [GRIK2, Q13002]" readoutname=pKd obsvalue="below the threshold"
binder="VDSTVKVWTC [TRAF7, Q6Q0C0]" readoutname=pKd obsvalue="below the threshold"
binder="LRSPRTPSEV [OR10G3, Q8NGC4]" readoutname=pKd obsvalue="below the threshold"
binder="NHSSSPETTA [TRMT13, Q9NUP7]" readoutname=pKd obsvalue="below the threshold"

Respectfully, I request pKd for each entry included below.
1. EVEEFPETSV [TRPV3, Q8NET8]
2. LGRSTPQSEV [DGKH, Q86XP1]
3. VYPNAKVELV [PDLIM4_iso2, P50479;P50479-1]
4. QKNRKAQEDL [CES3, Q6UWW8]
5. IKAIVDLTGL [TRAF2, Q12933]
6. HLRARKSEWV [GJD4, Q96KN9]

A.
1. 4.25
2. below the threshold
3. below the threshold
4. below the threshold
5. below the threshold
6. below the threshold

Respectfully, I request pKd for each entry included below.
1. QMNQTLPVQV [EPHB3, P54753]
2. SGSLKLMTTV [DACT1, Q9NYF0]
3. LSEFKAMDSI [CTNNA1, P35221]
4. YYKRPVQEWV [MMP24, Q9Y5R2]
5. DDENIRTSDV [PLEKHA2, Q9HB19]

A.
1: below the threshold; 2: 4.92; 3: below the threshold; 4: below the threshold; 5: 3.8

Respectfully, I request pKd for each entry included below.
1. QPCFNKLFPL [LPXN, O60711]
2. SKSNFGSEPL [KIF17, Q9P2E2]

A.
1. below the threshold
2. below the threshold

The reported measurements were obtained from paper PMC9482650.
